Hello, the source for this data is patent US7550469B2, in case you need it.

# Assay system: cloned human dopamine D3 receptors (Homo sapiens, UniProt P35462)
# Construct: expressed in transfected cells; membrane homogenate
# Sequence (P35462 whole entry): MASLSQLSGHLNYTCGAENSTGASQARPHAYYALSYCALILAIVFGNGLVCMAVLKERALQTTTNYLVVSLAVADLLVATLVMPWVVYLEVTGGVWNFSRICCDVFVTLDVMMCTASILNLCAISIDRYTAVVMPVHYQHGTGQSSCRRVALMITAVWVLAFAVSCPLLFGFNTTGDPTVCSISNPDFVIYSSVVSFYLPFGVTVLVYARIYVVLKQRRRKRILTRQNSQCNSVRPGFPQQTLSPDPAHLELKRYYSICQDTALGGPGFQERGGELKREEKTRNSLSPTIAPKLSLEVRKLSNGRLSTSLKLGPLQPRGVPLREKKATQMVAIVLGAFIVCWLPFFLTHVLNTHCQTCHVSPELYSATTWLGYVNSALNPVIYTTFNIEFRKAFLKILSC
# Test details: [N-Methyl-3H]Spiroperidol binding to cloned human dopamine D3 receptors (Protocol 1)
# Condition label: read-out: D3K1
pKi: −log10 of the molar value.
Assay endpoint: pKi

Molecule	pKi
O=C(NCCCCN1CCN(c2c(Cl)sc3cc(C(F)(F)F)ccc23)CC1)c1ccc(F)cc1F [compound 815561]	7.39

[I] COc1ccc2[nH]c(C(=O)NCC3CCC3CN3CCN(c4csc5cc(C(F)(F)F)ccc45)CC3)cc2c1 (stereo not drawn) [compound 826291]
[II] O=C(NCCCCCCN1CCN(c2csc3cc(C(F)(F)F)ccc23)CC1)c1cc2ccccc2s1 [compound 826754]
Select the item whose pKi value is smaller, choosing between I and II . Please indicate the selected item by its label.
I
(I: 7.43, II: 8.49)

[I] O=C(NCCCCN1CCN(c2c(Cl)sc3cc(C(F)(F)F)ccc23)CC1)c1ccccc1C(F)(F)F [compound 815573]
[II] O=C(NCCCCCCN1CCN(c2csc3cc(C(F)(F)F)ccc23)CC1)c1ccc(OC(F)(F)F)cc1 [compound 826749]
[III] O=C(NC[C@@H]1CCCC[C@H]1CN1CCN(c2csc3cc(C(F)(F)F)ccc23)CC1)c1cc2ccccc2[nH]1 [compound 826285]
[IV] Cn1c(C(=O)NCCCCCN2CCN(c3csc4cc(C(F)(F)F)ccc34)CC2)cc2ccccc21 [compound 826796]
[V] O=C(NCCCCN1CCN(c2c(Cl)sc3cc(F)ccc23)CC1)c1ccc2c(c1)OCO2 [compound 815055]
Reorder the items by pKi, least to greatest. Lab note: final answer is the ordered label list.
III, I, IV, II, V
(III: 6.77, I: 7.46, IV: 7.83, II: 8.06, V: 8.46)

[A] O=C(NCCCCN1CCN(c2csc3cc(C(F)(F)F)ccc23)CC1)c1ccc([N+](=O)[O-])cc1 [compound 815549]
[B] CC1(C)C(CNC(=O)c2cccc(F)c2)C1CN1CCN(c2csc3cc(C(F)(F)F)ccc23)CC1 (stereo not drawn) [compound 826274]
Of A and B , whose reported pKi is the larger number? Use the label to indicate which entry you chose.
A

[A] O=C(NCCCCN1CCN(c2csc3cc(C(F)(F)F)ccc23)CC1)c1ccc2c(c1)OCO2 [compound 815544]
[B] CC(C)C(=O)NCCCCN1CCN(c2csc3cc(C(F)(F)F)ccc23)CC1 [compound 811700]
I'm curious whether A or B has the smaller pKi number. Which is it? // output: label of the selected item
B

----------
# Assay system: cloned human dopamine D3 receptors (Homo sapiens, UniProt P35462)
# Construct: expressed in transfected cells; membrane homogenate
# Test details: [N-Methyl-3H]Spiroperidol binding to cloned human dopamine D3 receptors (Protocol 1)
# Condition label: the 13th table, unit inferred; read-out: D3Ki
Assay endpoint: Ki (nM)

// solved cases for Ki follow
Compound structure string	Unit annotation	Obs value
O=C(NCCCCCN1CCCN(c2csc3cc(F)ccc23)CC1)c1ccc2ccccc2c1	nM	15.5
COc1cccc(C(=O)NCCCCN2CCCN(c3csc4cc(F)ccc34)CC2)c1	nM	6.5
O=C(NCCCCN1CCCN(c2csc3cc(F)ccc23)CC1)c1cccc(C(F)(F)F)c1	nM	10.8
O=C(NCCCCCN1CCCN(c2csc3cc(F)ccc23)CC1)c1cccc2[nH]ccc12	nM	34.8

[P] Cn1cccc1C(=O)NCCCCN1CCCN(c2csc3cc(C(F)(F)F)ccc23)CC1
[Q] O=C(NCCCCN1CCCN(c2csc3cc(C(F)(F)F)ccc23)CC1)c1ccc2nonc2c1
[R] O=C(NCCCCN1CCCN(c2csc3cc(F)ccc23)CC1)c1cccnc1Cl
[S] O=C(NCCCCN1CCCN(c2csc3cc(F)ccc23)CC1)c1ccc(-c2ccccc2F)cc1
Put these in order: smallest Ki first, largest last. List the labels in the requested order.
S, Q, R, P
(S: 2.2 nM, Q: 6.1 nM, R: 15 nM, P: 40 nM)
